Experiment: Chemical stability in PBS pH 6.5
Format: physicochemical
Settings: PBS pH 6.5, 60 min
Experimental readout: Remaining Percentage (%) 60 min
Report only the number, with the unit % understood.

Example results:
COC(=S)NC(C)Cc1ccc2c(c1)OCO2 (stereo not shown) [Prodrug 2] | 100.45
CSC(=S)N(C)C(C)Cc1ccc2c(c1)OCO2 (stereo not shown) [Prodrug 9] | 96.84
CCSC(=S)N(C)C(C)Cc1ccc2c(c1)OCO2 (stereo not shown) [Prodrug 11] | 93.41

State, in one line, measured Remaining Percentage (%) 60 min of COC(=S)N(C)C(C)Cc1ccc2c(c1)OCO2 (stereo not shown) [Prodrug 1]
102.35

Please supply the value of reported Remaining Percentage (%) 60 min for the item CSC(=O)NC(C)Cc1ccc2c(c1)OCO2 (stereo not shown) [Prodrug 6]
91.55

Quick one: give measured Remaining Percentage (%) 60 min for CCSC(=O)N(C)C(C)Cc1ccc2c(c1)OCO2 (stereo not shown) [Prodrug 7]
97.73

// Input: CCSC(=O)NC(C)Cc1ccc2c(c1)OCO2 (stereo not shown) [Prodrug 8] . Output its Remaining Percentage (%) 60 min only.
100.82

Entry CCOC(=S)NC(C)Cc1ccc2c(c1)OCO2 (stereo not shown) [Prodrug 4] needs its Remaining Percentage (%) 60 min filled in; supply it.
100.85

Annotate the compound CSC(=S)NC(C)Cc1ccc2c(c1)OCO2 (stereo not shown) [Prodrug 10] with its measured Remaining Percentage (%) 60 min.
105.17

// Input: O=C(O)Cc1ccccc1Nc1c(Cl)cccc1Cl [Diclofenac, reference compound] . Output its Remaining Percentage (%) 60 min only.
35.44

Check the records and state Remaining Percentage (%) 60 min for CCOC(=S)N(C)C(C)Cc1ccc2c(c1)OCO2 (stereo not shown) [Prodrug 3]
95.33

Tell us which Remaining Percentage (%) 60 min value is on record for CCSC(=S)NC(C)Cc1ccc2c(c1)OCO2 (stereo not shown) [Prodrug 12]
99.30

Read the entry CSC(=O)N(C)C(C)Cc1ccc2c(c1)OCO2 (stereo not shown) [Prodrug 5] and write its reported Remaining Percentage (%) 60 min.
104.03

====

Assay: Solubility in FaSSIF
Type: physicochemical
Details: read-out: SOL (μM) FaSSIF
Experimental readout: solubility (µM)
Only the number, expressed in µM, is required.

COC(=S)N(C)C(C)Cc1ccc2c(c1)OCO2 (stereo not drawn) [Prodrug 1] | 278
CCOC(=S)N(C)C(C)Cc1ccc2c(c1)OCO2 (stereo not drawn) [Prodrug 3] | 131
CCSC(=S)NC(C)Cc1ccc2c(c1)OCO2 (stereo not drawn) [Prodrug 12] | 252
CSC(=S)NC(C)Cc1ccc2c(c1)OCO2 (stereo not drawn) [Prodrug 10] | 306
CSC(=S)N(C)C(C)Cc1ccc2c(c1)OCO2 (stereo not drawn) [Prodrug 9] | 30.4

Next item in the queue.
Supply solubility value. Item: COC(=S)NC(C)Cc1ccc2c(c1)OCO2 (stereo not drawn) [Prodrug 2]
279

====

Test: Chemical stability in PBS pH 6.5
Format: physicochemical
Conditions: PBS pH 6.5, 30 min
Experimental readout: Remaining Percentage (%) 30 min
Give your result in % as a bare value.

Study these solved cases before continuing.
CSC(=S)N(C)C(C)Cc1ccc2c(c1)OCO2 (stereo not drawn) [Prodrug 9] | 97.22
CCSC(=O)N(C)C(C)Cc1ccc2c(c1)OCO2 (stereo not drawn) [Prodrug 7] | 99.17
COC(=S)NC(C)Cc1ccc2c(c1)OCO2 (stereo not drawn) [Prodrug 2] | 105.00
CCSC(=O)NC(C)Cc1ccc2c(c1)OCO2 (stereo not drawn) [Prodrug 8] | 113.02
CCSC(=S)N(C)C(C)Cc1ccc2c(c1)OCO2 (stereo not drawn) [Prodrug 11] | 95.01

# input for lookup
Identify measured Remaining Percentage (%) 30 min corresponding to CCOC(=S)N(C)C(C)Cc1ccc2c(c1)OCO2 (stereo not drawn) [Prodrug 3]
100.73

====

Catalogue of Remaining Percentage (%) 120 min readings, one per entry.
Assay: Chemical stability in PBS pH 6.5
Format: physicochemical
Details: PBS pH 6.5, 120 min
Show the value, then the unit it is measured in.

As a guide, the following entries are already answered.
COC(=S)N(C)C(C)Cc1ccc2c(c1)OCO2 (stereo not shown) [Prodrug 1] | 93.11%
CCOC(=S)N(C)C(C)Cc1ccc2c(c1)OCO2 (stereo not shown) [Prodrug 3] | 99.99%

Tell us which Remaining Percentage (%) 120 min value is on record for CSC(=O)N(C)C(C)Cc1ccc2c(c1)OCO2 (stereo not shown) [Prodrug 5]
96.42%

Please report the measured Remaining Percentage (%) 120 min for CCSC(=S)NC(C)Cc1ccc2c(c1)OCO2 (stereo not shown) [Prodrug 12]
104.13%

Give Remaining Percentage (%) 120 min for the following compound: CCSC(=O)N(C)C(C)Cc1ccc2c(c1)OCO2 (stereo not shown) [Prodrug 7]
95.86%

Supply reported Remaining Percentage (%) 120 min belonging to this compound: CSC(=O)NC(C)Cc1ccc2c(c1)OCO2 (stereo not shown) [Prodrug 6]
88.38%

Read the entry CSC(=S)NC(C)Cc1ccc2c(c1)OCO2 (stereo not shown) [Prodrug 10] and write its reported Remaining Percentage (%) 120 min.
109.86%

====

Remaining Percentage (%) 30 min values for the compounds below.
Test: Chemical stability in PBS pH 6.5
Format: physicochemical
Settings: PBS pH 6.5, 30 min
API: value field is a number in %; no unit string.

Specify reported Remaining Percentage (%) 30 min for the compound shown: CSC(=S)NC(C)Cc1ccc2c(c1)OCO2 (stereo not shown) [Prodrug 10]
96.55

Provide only the value of recorded Remaining Percentage (%) 30 min for CCOC(=S)NC(C)Cc1ccc2c(c1)OCO2 (stereo not shown) [Prodrug 4]
103.44

Determine from records and report Remaining Percentage (%) 30 min for O=C(O)Cc1ccccc1Nc1c(Cl)cccc1Cl [Diclofenac, reference compound]
60.68

Note down Remaining Percentage (%) 30 min recorded for CSC(=O)N(C)C(C)Cc1ccc2c(c1)OCO2 (stereo not shown) [Prodrug 5]
91.67

State its Remaining Percentage (%) 30 min for this compound: COC(=S)N(C)C(C)Cc1ccc2c(c1)OCO2 (stereo not shown) [Prodrug 1]
95.62

Name the recorded Remaining Percentage (%) 30 min of the item CCSC(=S)NC(C)Cc1ccc2c(c1)OCO2 (stereo not shown) [Prodrug 12] in your answer.
102.94

Entry CSC(=O)NC(C)Cc1ccc2c(c1)OCO2 (stereo not shown) [Prodrug 6] needs its Remaining Percentage (%) 30 min filled in; supply it.
93.08

====

Each entry below lists one item and its recorded solubility value.
Assay: Solubility in FaSSIF
Assay type: physicochemical
Settings: read-out: SOL (μM) FaSSIF
Number in µM, nothing else.

Quick one: give measured solubility for CSC(=O)NC(C)Cc1ccc2c(c1)OCO2 (stereo not drawn) [Prodrug 6]
293

====

Assay: Plasma stability in mouse plasma
Format: in vitro ADME
Details: test concentration 1 μM
Experimental readout: half-life at 1 μM

The examples below pair each entry with its known result.
CCOC(=S)NC(C)Cc1ccc2c(c1)OCO2 (stereo not drawn) [Prodrug 4] | > 8.52 h
CSC(=O)NC(C)Cc1ccc2c(c1)OCO2 (stereo not drawn) [Prodrug 6] | > 8.52 h
CSC(=S)NC(C)Cc1ccc2c(c1)OCO2 (stereo not drawn) [Prodrug 10] | > 8.52 h

Please list half-life at 1 μM recorded for the compound COC(=S)N(C)C(C)Cc1ccc2c(c1)OCO2 (stereo not drawn) [Prodrug 1]
> 8.52 h

Please indicate half-life at 1 μM recorded for COC(=S)NC(C)Cc1ccc2c(c1)OCO2 (stereo not drawn) [Prodrug 2]
> 8.52 h

Answer with the recorded half-life at 1 μM for the compound listed here: CCSC(=O)NC(C)Cc1ccc2c(c1)OCO2 (stereo not drawn) [Prodrug 8]
> 8.52 h

For CSC(=S)N(C)C(C)Cc1ccc2c(c1)OCO2 (stereo not drawn) [Prodrug 9] , write its half-life at 1 μM.
> 8.52 h

Recall and state the measured half-life at 1 μM for CCSC(=S)NC(C)Cc1ccc2c(c1)OCO2 (stereo not drawn) [Prodrug 12] .
> 8.52 h

Report measured half-life at 1 μM; entry is CCSC(=S)N(C)C(C)Cc1ccc2c(c1)OCO2 (stereo not drawn) [Prodrug 11]
> 8.52 h

Respond only with half-life at 1 μM recorded for CCSC(=O)N(C)C(C)Cc1ccc2c(c1)OCO2 (stereo not drawn) [Prodrug 7]
> 8.52 h

Could you please provide reported half-life at 1 μM for CSC(=O)N(C)C(C)Cc1ccc2c(c1)OCO2 (stereo not drawn) [Prodrug 5] ? Thanks!
> 8.52 h

Annotate the compound CCOC(=S)N(C)C(C)Cc1ccc2c(c1)OCO2 (stereo not drawn) [Prodrug 3] with its measured half-life at 1 μM.
> 8.52 h

====

Each entry below carries its recorded Remaining Percentage (%) 240 min.
Experiment: Chemical stability in PBS pH 6.5
Format: physicochemical
Conditions: PBS pH 6.5, 240 min
Expressed in %, but write only the number.

CCSC(=S)N(C)C(C)Cc1ccc2c(c1)OCO2 (stereo not shown) [Prodrug 11] | 94.38
CCSC(=O)NC(C)Cc1ccc2c(c1)OCO2 (stereo not shown) [Prodrug 8] | 114.28
CSC(=O)NC(C)Cc1ccc2c(c1)OCO2 (stereo not shown) [Prodrug 6] | 88.38
COC(=S)NC(C)Cc1ccc2c(c1)OCO2 (stereo not shown) [Prodrug 2] | 105.00
COC(=S)N(C)C(C)Cc1ccc2c(c1)OCO2 (stereo not shown) [Prodrug 1] | 106.73
CCOC(=S)NC(C)Cc1ccc2c(c1)OCO2 (stereo not shown) [Prodrug 4] | 94.28

Give Remaining Percentage (%) 240 min for CSC(=S)N(C)C(C)Cc1ccc2c(c1)OCO2 (stereo not shown) [Prodrug 9]
89.55

Quote Remaining Percentage (%) 240 min reported for CCOC(=S)N(C)C(C)Cc1ccc2c(c1)OCO2 (stereo not shown) [Prodrug 3] please.
91.16

For the compound CCSC(=O)N(C)C(C)Cc1ccc2c(c1)OCO2 (stereo not shown) [Prodrug 7] , give its reported Remaining Percentage (%) 240 min.
103.73

Please report Remaining Percentage (%) 240 min for the following compound: CCSC(=S)NC(C)Cc1ccc2c(c1)OCO2 (stereo not shown) [Prodrug 12]
100.98

Tell us which Remaining Percentage (%) 240 min value is on record for O=C(O)Cc1ccccc1Nc1c(Cl)cccc1Cl [Diclofenac, reference compound]
1.85

// Input: CSC(=S)NC(C)Cc1ccc2c(c1)OCO2 (stereo not shown) [Prodrug 10] . Output its Remaining Percentage (%) 240 min only.
113.62

Tell me measured Remaining Percentage (%) 240 min for CSC(=O)N(C)C(C)Cc1ccc2c(c1)OCO2 (stereo not shown) [Prodrug 5] please.
91.92
